# TARGET: native RSV F protein from the RSV A2 strain (Respiratory Syncytial Virus strain A2, UniProt P03420 26-574)
# TEST PROTOCOL: cell-based or functional assay
ENDPOINT LABEL: ED50, plaque reduction, RSV A2 (pM)

>  <BINDER>
Motavizumab IgG (antibody, V domains shown) VH: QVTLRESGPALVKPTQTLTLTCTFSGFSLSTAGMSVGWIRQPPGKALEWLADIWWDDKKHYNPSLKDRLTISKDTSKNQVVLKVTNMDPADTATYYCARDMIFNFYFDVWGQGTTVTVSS VL: DIQMTQSPSTLSASVGDRVTITCSASSRVGYMHWYQQKPGKAPKLLIYDTSKLASGVPSRFSGSGSGTEFTLTISSLQPDDFATYYCFQGSGYPFTFGGGTKVEIK

>  <RECORDED VALUE>
360

$$$$
>  <BINDER>
IgG form of 17C9 (antibody, V domains shown) VH: QVQLQQWGAGLVRPSETLSLTCAVYGDSFNDYFWTWIRQTPGKGLEWIGEISHSGSTNYSPSLKSRVTISVDTSKNQFSLKLSAVTAADTTVYFCARGVRSRPPPSYRGSGSPPYYHYGMDVWGQGTTVTVSS VL: EIVLTQSPSTLSASVGDRVTITCRASQNINTWLAWYQQKPGKAPKLLIYAASFLQSGVPSRFSGSGSGTDFTLTISNLQPEDFATYFCQQANSFPRTFGQGTKVEVKR

>  <RECORDED VALUE>
363

$$$$
